Here the recorded inhibition at 13 µM is given for each entry.
# assay-target: S. pneumoniae Topoisomerase IV ATPase (ParE) (Streptococcus pneumoniae serotype 4, UniProt Q59961)
# Sequence (Q59961 whole entry): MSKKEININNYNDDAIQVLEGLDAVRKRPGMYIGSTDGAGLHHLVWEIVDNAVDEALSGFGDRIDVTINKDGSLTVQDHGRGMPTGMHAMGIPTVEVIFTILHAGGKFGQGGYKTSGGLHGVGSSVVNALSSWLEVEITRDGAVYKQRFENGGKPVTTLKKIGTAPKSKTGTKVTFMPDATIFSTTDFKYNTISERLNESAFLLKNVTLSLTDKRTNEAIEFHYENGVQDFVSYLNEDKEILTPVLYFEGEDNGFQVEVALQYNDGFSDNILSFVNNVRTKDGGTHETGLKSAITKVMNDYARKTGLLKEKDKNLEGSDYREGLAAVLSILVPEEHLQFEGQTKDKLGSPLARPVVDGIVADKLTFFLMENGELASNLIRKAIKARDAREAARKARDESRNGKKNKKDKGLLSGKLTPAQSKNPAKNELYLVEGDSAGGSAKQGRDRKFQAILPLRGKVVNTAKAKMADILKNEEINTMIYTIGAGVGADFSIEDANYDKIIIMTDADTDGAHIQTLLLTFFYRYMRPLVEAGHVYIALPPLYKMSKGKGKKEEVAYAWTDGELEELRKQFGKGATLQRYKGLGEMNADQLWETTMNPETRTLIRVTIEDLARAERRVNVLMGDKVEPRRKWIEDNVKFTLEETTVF
# experiment-summary: S. pneumoniae Topoisomerase IV ATPase inhibition
# Format: biochemical
# conditions-used: values marked * are an average of two or more data points, read-out: % Inh (13 μM) of S. pneumoniae Topoisomerase IV ATPase
API: value field is a number in %; no unit string.

Past entries and their recorded results:
{"compound": "CN(C)CCCNc1nc(Nc2ccc(F)c(Cl)c2)ncc1-c1cccc(NS(=O)(=O)N(C)C)c1 [Example 11]", "endpoint-value": 18.2}
{"compound": "COc1cc(F)cc(Nc2ncc(-c3cnc(OC)c(C(=O)O)c3)c(-n3ccc(C(F)(F)F)n3)n2)c1 [Example 923]", "endpoint-value": 100}
{"compound": "Cc1cc(F)cc(Nc2ncc(-c3cncc(C(=O)O)c3)c(-n3nc(C(F)(F)F)cc3C)n2)c1 [Example 771]", "endpoint-value": 100}

Recorded result, O=C(O)c1cncc(-c2cnc(Nc3ccc(F)c(Cl)c3)nc2NCc2cccnc2)c1 [Example 223] , inhibition at 13 µM: 77.4

inhibition at 13 µM in this record for COc1ncc(-c2cnc(Nc3ccc(F)c(Cl)c3)nc2NCCc2cccnc2)cn1 [Example 460] : 100

Lab book: inhibition at 13 µM of CN(C)CCCNc1nc(Nc2ccc(F)c(Cl)c2)ncc1-c1cccnc1 [Example 23] noted as 95.8

For this compound ( Nc1ncc(-c2cnc(Nc3ccc(F)c(Cl)c3)nc2-n2ccc(C(F)(F)F)n2)cc1C(=O)O [Example 1073] ), measured inhibition at 13 µM is 99

Summary for this compound, Cc1ccc(F)c(Nc2ncc(-c3cncc(C(=O)O)c3)c(-n3ccc(C(F)(F)F)n3)n2)c1 [Example 772] : inhibition at 13 µM is 81

---

# assay-target: S. pneumoniae Topoisomerase IV ATPase (ParE) (Streptococcus pneumoniae serotype 4, UniProt Q59961)
# experiment-summary: S. pneumoniae Topoisomerase IV ATPase inhibition
# Format: biochemical
# conditions-used: values marked * are an average of two or more data points, read-out: % Inh (13 μM) of S. pneumoniae Topoisomerase IV ATPase
inhibition at 13 µM by entry:
Lab book: enter the figure in %, no units written.

{"molecule": "O=C(O)c1cc(-c2cnc(Nc3ccc(F)c(Cl)c3)nc2N2CCOCC2)cs1 [Example 483]", "endpoint-value": 66}
{"molecule": "O=C(O)c1cncc(-c2cnc(Nc3ccc(F)c(Cl)c3)nc2-n2nccn2)c1 [Example 317]", "endpoint-value": 84.9}
{"molecule": "O=C(O)c1cncc(-c2cnc(Nc3ccc(F)c(Cl)c3)nc2N2CCCC(CO)C2)c1 (stereo not drawn) [Example 245]", "endpoint-value": 83.1}
{"molecule": "COC1CCN(c2nc(Nc3ccc(F)c(Cl)c3)ncc2-c2cncnc2)CC1 [Example 65]", "endpoint-value": 75.9}
{"molecule": "COc1nc(OC)c(-c2cnc(Nc3ccc(F)c(Cl)c3)nc2-n2ccc(C(F)(F)F)n2)cc1C(=O)O [Example 1132]", "endpoint-value": 100}
{"molecule": "COc1cc(Nc2ncc(-c3cnc(OC)c(C(=O)O)c3)c(-n3nc(C(F)(F)F)nc3C)n2)cc(OC)c1 [Example 1144]", "endpoint-value": 100}

In plain terms, COc1cc(Nc2ncc(-c3cccc(/C=C/C(=O)O)c3)c(N3CCOCC3)n2)cc([N+](=O)[O-])c1 [Example 453] has a documented inhibition at 13 µM of 92

Memo: COc1cc(F)cc(Nc2ncc(-c3cc(C(=O)O)c(=O)n(C)c3)c(-n3ccc(C(F)(F)F)n3)n2)c1 [Example 920] , reported inhibition at 13 µM: 100

// field: inhibition at 13 µM; key: CCC(C)Nc1nc(Nc2ccc(F)c(Cl)c2)ncc1-c1ccc(OC)c(C(F)(F)F)c1 (stereo not drawn) [Example 1109] ; value = 28

Entry under test: CN(C)CCCNc1nc(Nc2ccc(F)c(Cl)c2)ncc1-c1cncc(C(=O)O)c1 [Example 214] . Its inhibition at 13 µM was 101

# molecule COc1cc(Nc2ncc(-c3cnc(OC)c(C(=O)NS(C)(=O)=O)c3)c(-n3nc(C(F)(F)F)nc3C)n2)cc(OC)c1 [Example 1153] ; its inhibition at 13 µM = 100
